These data points were gathered from ChEMBL document CHEMBL1142722.

What EC50 was measured for each of the following?
System: Human immunodeficiency virus 1
PROTOCOL: Effective concentration against PI-Resistant HIV strain (M5)
Format: functional, organism-based
CONDITION PARAMETERS: Human immunodeficiency virus 1
The figure you give is taken to be in nM; do not add the unit.

IN: Supply reported EC50 belonging to this molecule: CC(=O)c1ccc(S(=O)(=O)N(CC(C)C)C[C@@H](O)[C@H](Cc2ccccc2)NC(=O)O[C@H]2CO[C@H]3OCC[C@H]32)cc1
OUT: 11.7

IN: Supply reported EC50 belonging to this molecule: CC(C)CN(C[C@@H](O)[C@H](Cc1ccccc1)NC(=O)O[C@H]1CO[C@H]2OCC[C@H]21)S(=O)(=O)c1ccc(O)cc1
OUT: 6.17

IN: Supply reported EC50 belonging to this molecule: CC(C)CN(C[C@@H](O)[C@H](Cc1ccccc1)NC(=O)O[C@@H]1CO[C@@H]2OCC[C@@H]21)S(=O)(=O)c1ccc(N)cc1
OUT: 26.3

IN: Supply reported EC50 belonging to this molecule: Cc1ccc(S(=O)(=O)N(CC(C)C)C[C@@H](O)[C@H](Cc2ccccc2)NC(=O)OC2COC3OCCC23)cc1 (mixture of isomers)
OUT: 40.7

IN: Supply reported EC50 belonging to this molecule: CC(C)CN(C[C@@H](O)[C@H](Cc1ccccc1)NC(=O)O[C@H]1CO[C@H]2OCC[C@H]21)S(=O)(=O)c1ccc([N+](=O)[O-])cc1
OUT: 45.7

IN: Supply reported EC50 belonging to this molecule: CC(C)CN(C[C@@H](O)[C@H](Cc1ccccc1)NC(=O)O[C@H]1CO[C@H]2OCC[C@H]21)S(=O)(=O)c1ccc2c(c1)OCO2
OUT: 4.07

IN: Supply reported EC50 belonging to this molecule: COc1ccc(S(=O)(=O)N(CC(C)C)C[C@@H](O)[C@H](Cc2ccccc2)NC(=O)O[C@H]2CO[C@H]3OCC[C@H]32)cc1
OUT: 2.88
